# credit: ChEMBL document CHEMBL2321680

- Subject Of Test: TCF4/beta-catenin (Homo sapiens, UniProt P35222+Q9NQB0)
- Sequence (P35222 whole entry): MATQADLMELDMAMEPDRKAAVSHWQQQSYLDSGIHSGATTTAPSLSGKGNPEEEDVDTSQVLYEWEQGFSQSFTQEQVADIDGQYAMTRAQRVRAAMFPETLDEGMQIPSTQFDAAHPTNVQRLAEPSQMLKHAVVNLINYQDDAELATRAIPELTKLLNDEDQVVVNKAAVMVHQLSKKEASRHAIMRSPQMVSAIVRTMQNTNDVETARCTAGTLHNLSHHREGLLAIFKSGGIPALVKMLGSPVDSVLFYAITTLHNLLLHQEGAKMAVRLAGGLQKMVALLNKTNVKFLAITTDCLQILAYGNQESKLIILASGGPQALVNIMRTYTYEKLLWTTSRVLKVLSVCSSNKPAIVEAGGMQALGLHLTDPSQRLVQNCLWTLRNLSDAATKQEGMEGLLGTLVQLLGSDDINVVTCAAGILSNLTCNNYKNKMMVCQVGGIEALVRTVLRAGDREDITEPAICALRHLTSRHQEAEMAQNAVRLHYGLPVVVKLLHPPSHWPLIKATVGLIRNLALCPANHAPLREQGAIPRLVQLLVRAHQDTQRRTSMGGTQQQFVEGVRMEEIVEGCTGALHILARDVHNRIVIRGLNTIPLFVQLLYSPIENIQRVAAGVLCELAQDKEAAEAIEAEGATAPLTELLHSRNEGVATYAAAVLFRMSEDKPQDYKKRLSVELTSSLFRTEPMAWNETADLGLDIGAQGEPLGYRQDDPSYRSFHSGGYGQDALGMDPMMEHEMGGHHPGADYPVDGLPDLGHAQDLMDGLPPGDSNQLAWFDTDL
- Sequence (Q9NQB0 whole entry): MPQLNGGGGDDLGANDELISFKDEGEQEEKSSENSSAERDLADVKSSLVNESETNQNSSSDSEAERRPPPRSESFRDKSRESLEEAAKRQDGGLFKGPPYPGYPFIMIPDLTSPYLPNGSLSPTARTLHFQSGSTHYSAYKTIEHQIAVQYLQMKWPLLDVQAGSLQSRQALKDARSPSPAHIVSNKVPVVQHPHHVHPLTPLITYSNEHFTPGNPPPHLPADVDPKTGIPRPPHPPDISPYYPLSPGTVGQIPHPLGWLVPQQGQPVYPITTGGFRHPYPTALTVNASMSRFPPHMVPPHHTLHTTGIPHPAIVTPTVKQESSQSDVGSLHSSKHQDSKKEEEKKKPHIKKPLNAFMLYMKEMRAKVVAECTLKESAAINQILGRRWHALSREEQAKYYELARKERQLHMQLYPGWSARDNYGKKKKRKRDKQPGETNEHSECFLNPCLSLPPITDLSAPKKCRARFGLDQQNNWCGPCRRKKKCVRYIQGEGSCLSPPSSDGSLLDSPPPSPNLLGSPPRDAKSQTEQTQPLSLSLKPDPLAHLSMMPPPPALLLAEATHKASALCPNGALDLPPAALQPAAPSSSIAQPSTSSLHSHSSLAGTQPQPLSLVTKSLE
- Procedure Details: Inhibition of human beta-catenin/Tcf4 interaction after 1 hr by alphascreen assay
Quantity: Ki (µM)

Smiles Record: C=CCN1C(=O)/C(=N\NC(=O)C(=O)Nc2cccc(C(=O)O)c2)c2ccccc21
Output Unit: µM
Ki: 21
--
Smiles Record: COc1cccc(/C=C2/SC(=S)N(CCC(=O)O)C2=O)c1OC
Output Unit: µM
Ki: 29

###

- Subject Of Test: TCF4/beta-catenin (Homo sapiens, UniProt P35222+Q9NQB0)
- Procedure Details: Inhibition of human […]/Tcf4 interaction after 1 hr by fluorescence polarization assay
- Assay type: protein-complex assay
Quantity: pKi
// field semantics: pKi = negative decimal log of concentration (mol/L)

Compound: COc1c(C[C@@H](C)OC(=O)Oc2ccc(O)cc2)c2c3c(C[C@@H](C)OC(=O)c4ccccc4)c(OC)c(=O)c4c(O)cc(OC)c(c5c(OC)cc(O)c(c1=O)c52)c43 [CALPHOSTIN C]
Quantity: pKi
Observed Result: 4.74

# lookup: pKi of C=CCN1C(=O)/C(=N\NC(=O)C(=O)Nc2cccc(C(=O)O)c2)c2ccccc21
4.80

###

- Subject Of Test: Catenin beta-1/Adenomatous polyposis coli protein (Homo sapiens)
- Procedure Details: Inhibition of human beta-catenin/APC-R3 interaction after 1 hr by alphascreen assay
Quantity: Ki (µM)

P = C=CCN1C(=O)/C(=N\NC(=O)C(=O)Nc2cccc(C(=O)O)c2)c2ccccc21
Q = COc1cccc(/C=C2/SC(=S)N(CCC(=O)O)C2=O)c1OC
Lower value for measured Ki? Options: P , Q Please identify the chosen entry by its label.
Q

###

- Subject Of Test: Catenin beta-1/Cadherin-1 (Homo sapiens)
- Procedure Details: Inhibition of human beta-catenin/E-cadherin interaction after 1 hr by fluorescence polarization assay
Quantity: Ki (µM)
The figure you give is taken to be in µM; do not add the unit.

# lookup: Ki of C=CCN1C(=O)/C(=N\NC(=O)C(=O)Nc2cccc(C(=O)O)c2)c2ccccc21
260

###

- Subject Of Test: Catenin beta-1/Adenomatous polyposis coli protein (Homo sapiens)
- Procedure Details: Inhibition of human beta-catenin/APC-R3 interaction after 1 hr by fluorescence polarization assay
Quantity: pKi
// field semantics: pKi = negative decimal log of concentration (mol/L)

# lookup: pKi of C=CCN1C(=O)/C(=N\NC(=O)C(=O)Nc2cccc(C(=O)O)c2)c2ccccc21
3.40
